# test-system: human H4R Q347G mutant (Homo sapiens, UniProt Q9H3N8, Q347G)
# Construct: a mutant H4R (human, full-length, and untagged); expressed in transfected cells; host or cells: HEK293A
# Sequence (Q9H3N8 whole entry Q347G): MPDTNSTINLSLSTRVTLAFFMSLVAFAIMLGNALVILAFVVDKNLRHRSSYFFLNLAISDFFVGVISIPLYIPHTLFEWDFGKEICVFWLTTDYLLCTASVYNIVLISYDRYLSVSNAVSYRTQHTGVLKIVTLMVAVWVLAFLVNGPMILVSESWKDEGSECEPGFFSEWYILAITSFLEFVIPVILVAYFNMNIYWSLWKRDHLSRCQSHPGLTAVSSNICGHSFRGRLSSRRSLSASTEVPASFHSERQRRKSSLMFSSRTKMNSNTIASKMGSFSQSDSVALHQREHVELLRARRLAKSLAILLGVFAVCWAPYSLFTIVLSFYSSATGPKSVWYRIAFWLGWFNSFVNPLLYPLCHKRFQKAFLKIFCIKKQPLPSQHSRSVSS
# protocol-description: TGFα shedding assay, H4R Q347G mutant
# Type: cell-based
# experimental-setup: pEC50, Q347G; single experiments, source data Figure 4e-f
pEC50: −log10 of the molar value.

molecule	pEC50
N=C(N)SCCc1cnc[nH]1 [Imetit, imetit]	7.91

---

# test-system: human H4R E182N mutant (Homo sapiens, UniProt Q9H3N8, E182N)
# Construct: a mutant H4R (human, full-length, and untagged)
# Sequence (Q9H3N8 whole entry E182N): as the sequence (Q9H3N8 whole entry Q347G) above, with E182N, G347Q counted along it
# protocol-description: TGFα shedding assay, H4R E182N mutant
# Method: The mutants were prepared using the primers listed in Supplementary Table 2. […] Absorbance was measured at 405 nm before and after a 1-h incubation period at 25 °C using a microplate reader (iMark™ Microplate Absorbance Reader; BioRad). Ligand-induced AP-TGFα release was calculated as previously described. […] All functional study data were analyzed using Prism 9 (GraphPad) and are presented as mean ± standard error of the mean (SEM) of three independent experiments. […]

compound	EC50
N=C(N)SCCc1cnc[nH]1 [Imetit, imetit]	> 10 µM

---

# test-system: human wild-type H4R (Homo sapiens)
# Construct: a mutant H4R (human, full-length, and untagged); expressed in transfected cells; host or cells: HEK293A
# protocol-description: TGFα shedding assay, wild-type H4R
# Format: cell-based
# experimental-setup: EC50 (nM), WT H4R

compound	EC50, nM
N=C(N)SCCc1cnc[nH]1 [Imetit, imetit]	29.9

---

# test-system: human H4R W348Y mutant (Homo sapiens, UniProt Q9H3N8, W348Y)
# Construct: a mutant H4R (human, full-length, and untagged)
# Sequence (Q9H3N8 whole entry W348Y): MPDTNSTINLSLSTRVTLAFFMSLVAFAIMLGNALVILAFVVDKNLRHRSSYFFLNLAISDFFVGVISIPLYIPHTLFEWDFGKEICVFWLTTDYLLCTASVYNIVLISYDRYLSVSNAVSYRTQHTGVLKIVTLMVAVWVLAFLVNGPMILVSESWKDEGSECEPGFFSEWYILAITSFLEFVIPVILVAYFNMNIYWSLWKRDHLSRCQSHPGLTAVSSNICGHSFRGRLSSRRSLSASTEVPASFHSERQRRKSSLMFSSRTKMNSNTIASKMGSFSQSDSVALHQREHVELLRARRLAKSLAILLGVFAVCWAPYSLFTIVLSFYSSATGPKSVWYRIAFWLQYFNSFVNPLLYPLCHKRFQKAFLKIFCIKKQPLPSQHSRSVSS
# protocol-description: TGFα shedding assay, H4R W348Y mutant

smiles	test-system	EC50
N=C(N)SCCc1cnc[nH]1	human H4R W348Y mutant (Homo sapiens, UniProt Q9H3N8, W348Y)	> 10 µM

---

# test-system: human H4R N147Y mutant (Homo sapiens, UniProt Q9H3N8, N147Y)
# Construct: a mutant H4R (human, full-length, and untagged); expressed in transfected cells; host or cells: HEK293A
# Sequence (Q9H3N8 whole entry N147Y): as the sequence (Q9H3N8 whole entry Q347G) above, with N147Y, G347Q counted along it
# protocol-description: TGFα shedding assay, H4R N147Y mutant
# Format: cell-based
# experimental-setup: EC50 (nM), N147Y mutant
measure-name: EC50 (nM)

compound	test-system	reported-measurement
N=C(N)SCCc1cnc[nH]1 [Imetit, imetit]	human H4R N147Y mutant (Homo sapiens, UniProt Q9H3N8, N147Y)	319

---

# test-system: human H4R N147W mutant (Homo sapiens, UniProt Q9H3N8, N147W)
# Construct: a mutant H4R (human, full-length, and untagged); expressed in transfected cells; host or cells: HEK293A
# Sequence (Q9H3N8 whole entry N147W): as the sequence (Q9H3N8 whole entry W348Y) above, with N147W, Y348W counted along it
# protocol-description: TGFα shedding assay, H4R N147W mutant
# Assay type: cell-based
# experimental-setup: EC50 (nM), N147W mutant
measure-name: EC50 (nM)

molecule	test-system	reported-measurement
N=C(N)SCCc1cnc[nH]1 [Imetit, imetit]	human H4R N147W mutant (Homo sapiens, UniProt Q9H3N8, N147W)	603

---

# test-system: human H4R E182A mutant (Homo sapiens, UniProt Q9H3N8, E182A)
# Construct: a mutant H4R (human, full-length, and untagged)
# Sequence (Q9H3N8 whole entry E182A): as the sequence (Q9H3N8 whole entry Q347G) above, with E182A, G347Q counted along it
# protocol-description: TGFα shedding assay, H4R E182A mutant
pEC50: −log10 of the molar value.

compound	pEC50
N=C(N)SCCc1cnc[nH]1 [Imetit, imetit]	< 5.00

---

# test-system: human H4R W348A mutant (Homo sapiens, UniProt Q9H3N8, W348A)
# Construct: a mutant H4R (human, full-length, and untagged); expressed in transfected cells; host or cells: HEK293A
# protocol-description: TGFα shedding assay, H4R W348A mutant
# Format: cell-based
measure-name: EC50

compound	reported-measurement
N=C(N)SCCc1cnc[nH]1 [Imetit, imetit]	> 10 µM

---

# test-system: human H4R T99A mutant (Homo sapiens, UniProt Q9H3N8, T99A)
# Construct: a mutant H4R (human, full-length, and untagged)
# Sequence (Q9H3N8 whole entry T99A): as the sequence (Q9H3N8 whole entry Q347G) above, with T99A, G347Q counted along it
# protocol-description: TGFα shedding assay, H4R T99A mutant
measure-name: EC50 (µM)

smiles	endpoint-unit	reported-measurement
N=C(N)SCCc1cnc[nH]1	µM	0.076

---

# test-system: human H4R Q347A mutant (Homo sapiens, UniProt Q9H3N8, Q347A)
# Construct: a mutant H4R (human, full-length, and untagged); expressed in transfected cells; host or cells: HEK293A
# protocol-description: TGFα shedding assay, H4R Q347A mutant
# Format: cell-based
# experimental-setup: pEC50 mean ± SEM, Q347A mutant
pEC50: −log10 of the molar value.

smiles	pEC50
N=C(N)SCCc1cnc[nH]1	7.91

---

# test-system: human H4R Y319A mutant (Homo sapiens, UniProt Q9H3N8, Y319A)
# Construct: a mutant H4R (human, full-length, and untagged); expressed in transfected cells; host or cells: HEK293A
# Sequence (Q9H3N8 whole entry Y319A): as the sequence (Q9H3N8 whole entry Q347G) above, with Y319A, G347Q counted along it
# protocol-description: TGFα shedding assay, H4R Y319A mutant
# Type: cell-based
# experimental-setup: EC50 (nM), Y319A mutant

smiles	EC50 (nM)
N=C(N)SCCc1cnc[nH]1	159

---

# test-system: human H4R Y95A mutant (Homo sapiens, UniProt Q9H3N8, Y95A)
# Construct: a mutant H4R (human, full-length, and untagged)
# Sequence (Q9H3N8 whole entry Y95A): as the sequence (Q9H3N8 whole entry Q347G) above, with Y95A, G347Q counted along it
# protocol-description: TGFα shedding assay, H4R Y95A mutant

compound	EC50
N=C(N)SCCc1cnc[nH]1 [Imetit, imetit]	> 10 µM

---

# test-system: human H4R C98A mutant (Homo sapiens, UniProt Q9H3N8, C98A)
# Construct: a mutant H4R (human, full-length, and untagged); expressed in transfected cells; host or cells: HEK293A
# protocol-description: TGFα shedding assay, H4R C98A mutant
# Type: cell-based
# experimental-setup: EC50 (nM), C98A mutant
measure-name: EC50 (nM)

compound	test-system	measure-name	endpoint-unit	reported-measurement
N=C(N)SCCc1cnc[nH]1 [Imetit, imetit]	human H4R C98A mutant (Homo sapiens, UniProt Q9H3N8, C98A)	EC50	nM	486

---

# test-system: human H4R Q347A mutant (Homo sapiens, UniProt Q9H3N8, Q347A)
# Construct: a mutant H4R (human, full-length, and untagged); expressed in transfected cells; host or cells: HEK293A
# protocol-description: TGFα shedding assay, H4R Q347A mutant
# Assay type: cell-based
# experimental-setup: EC50 (nM), Q347A mutant
measure-name: EC50 (nM)

smiles	test-system	reported-measurement
N=C(N)SCCc1cnc[nH]1	human H4R Q347A mutant (Homo sapiens, UniProt Q9H3N8, Q347A)	12.7
